- TESTED_SYSTEM: 5-hydroxytryptamine receptor 7 (Homo sapiens, UniProt P34969)
- Sequence (P34969 whole entry): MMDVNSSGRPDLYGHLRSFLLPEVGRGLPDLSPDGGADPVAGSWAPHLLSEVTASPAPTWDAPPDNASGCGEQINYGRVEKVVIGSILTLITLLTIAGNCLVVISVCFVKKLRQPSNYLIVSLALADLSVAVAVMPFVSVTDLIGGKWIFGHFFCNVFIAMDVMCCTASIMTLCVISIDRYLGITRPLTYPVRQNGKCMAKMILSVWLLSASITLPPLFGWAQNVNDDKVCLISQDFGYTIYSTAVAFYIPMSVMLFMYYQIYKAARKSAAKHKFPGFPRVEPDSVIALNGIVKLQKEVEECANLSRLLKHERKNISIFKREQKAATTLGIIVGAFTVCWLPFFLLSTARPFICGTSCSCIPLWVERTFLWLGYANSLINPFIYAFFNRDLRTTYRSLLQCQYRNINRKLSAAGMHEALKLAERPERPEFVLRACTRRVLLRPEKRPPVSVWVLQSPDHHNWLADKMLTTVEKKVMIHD
READOUT_TYPE: Ki (nM)
Record the value in nM, omitting the unit from your answer.

IN: Enter reported Ki observed with 5-hydroxytryptamine receptor 7 (Homo sapiens, UniProt P34969) for `COc1ccc2c(c1)c(CCN(C)C)cn2S(=O)(=O)c1ccccc1`
OUT: 600

* * *

- TESTED_SYSTEM: 5-hydroxytryptamine receptor 1B (Homo sapiens, UniProt P28222)
- Sequence (P28222 whole entry): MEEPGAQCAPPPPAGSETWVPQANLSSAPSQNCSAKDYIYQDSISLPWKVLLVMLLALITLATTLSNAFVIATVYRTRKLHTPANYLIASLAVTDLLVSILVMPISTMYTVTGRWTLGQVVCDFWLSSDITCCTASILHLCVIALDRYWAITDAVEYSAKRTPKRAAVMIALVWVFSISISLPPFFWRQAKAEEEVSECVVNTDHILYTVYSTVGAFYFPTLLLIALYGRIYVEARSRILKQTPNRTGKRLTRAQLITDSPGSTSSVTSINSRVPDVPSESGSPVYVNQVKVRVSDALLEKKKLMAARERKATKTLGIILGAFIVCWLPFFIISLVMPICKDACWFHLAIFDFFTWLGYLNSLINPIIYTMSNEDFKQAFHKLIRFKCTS
READOUT_TYPE: Ki (µM)
Record the value in µM, omitting the unit from your answer.

IN: Enter reported Ki observed with 5-hydroxytryptamine receptor 1B (Homo sapiens, UniProt P28222) for `COc1ccc2c(c1)c(CCN(C)C)cn2S(=O)(=O)c1ccccc1`
OUT: 9.21

* * *

- TESTED_SYSTEM: 5-hydroxytryptamine receptor 2A (Rattus norvegicus, UniProt P14842)
- Sequence (P14842 whole entry): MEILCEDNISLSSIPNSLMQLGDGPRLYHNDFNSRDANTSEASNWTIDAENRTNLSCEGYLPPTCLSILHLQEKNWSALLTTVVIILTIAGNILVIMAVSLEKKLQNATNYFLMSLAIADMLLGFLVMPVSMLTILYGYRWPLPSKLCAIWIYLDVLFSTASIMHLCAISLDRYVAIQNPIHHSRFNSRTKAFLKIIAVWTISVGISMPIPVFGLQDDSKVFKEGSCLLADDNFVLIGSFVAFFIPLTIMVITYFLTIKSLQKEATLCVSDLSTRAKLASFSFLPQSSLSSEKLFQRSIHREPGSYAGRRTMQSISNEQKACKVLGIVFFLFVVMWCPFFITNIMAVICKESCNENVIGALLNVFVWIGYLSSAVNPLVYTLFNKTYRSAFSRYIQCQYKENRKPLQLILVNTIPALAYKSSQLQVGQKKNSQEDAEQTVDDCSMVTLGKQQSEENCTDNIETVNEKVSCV
READOUT_TYPE: Ki (nM)
Record the value in nM, omitting the unit from your answer.

IN: Enter reported Ki observed with 5-hydroxytryptamine receptor 2A (Rattus norvegicus, UniProt P14842) for `COc1ccc2c(c1)c(CCN(C)C)cn2S(=O)(=O)c1ccccc1`
OUT: 130

* * *

What follows is a record of Ki for 5-hydroxytryptamine receptor 6 (Homo sapiens, UniProt P50406).

IN: Data request, read-out Ki, for `COc1ccc(S(=O)(=O)n2cc(CCN(C)C)c3cc(OC)ccc32)cc1`
OUT: 8 nM

IN: Data request, read-out Ki, for `COc1ccc2c(c1)c(CCN(C)C)cn2S(=O)(=O)c1ccccc1`
OUT: 2.3 nM

IN: Data request, read-out Ki, for `COc1ccc(OC)c(S(=O)(=O)n2cc(CCN(C)C)c3cc(OC)ccc32)c1`
OUT: 1.3 nM

IN: Data request, read-out Ki, for `COc1ccc2c(c1)c(CCN(C)C)cn2S(=O)(=O)c1cccc2ccccc12`
OUT: 0.9 nM

IN: Data request, read-out Ki, for `COc1ccc(OC)c(S(=O)(=O)n2cc(CCN(C)C)c3c(OC)cccc32)c1`
OUT: 7.4 nM

IN: Data request, read-out Ki, for `COc1ccc2c(c1)c(CCN(C)C)cn2S(=O)(=O)c1ccc2ccccc2c1`
OUT: 1.6 nM

IN: Data request, read-out Ki, for `COc1ccc2c(c1)c(CCN(C)C)cn2S(=O)(=O)c1ccc(Cl)cc1`
OUT: 3.1 nM

* * *

- TESTED_SYSTEM: 5-hydroxytryptamine receptor 2C (Rattus norvegicus, UniProt P08909)
- Sequence (P08909 whole entry): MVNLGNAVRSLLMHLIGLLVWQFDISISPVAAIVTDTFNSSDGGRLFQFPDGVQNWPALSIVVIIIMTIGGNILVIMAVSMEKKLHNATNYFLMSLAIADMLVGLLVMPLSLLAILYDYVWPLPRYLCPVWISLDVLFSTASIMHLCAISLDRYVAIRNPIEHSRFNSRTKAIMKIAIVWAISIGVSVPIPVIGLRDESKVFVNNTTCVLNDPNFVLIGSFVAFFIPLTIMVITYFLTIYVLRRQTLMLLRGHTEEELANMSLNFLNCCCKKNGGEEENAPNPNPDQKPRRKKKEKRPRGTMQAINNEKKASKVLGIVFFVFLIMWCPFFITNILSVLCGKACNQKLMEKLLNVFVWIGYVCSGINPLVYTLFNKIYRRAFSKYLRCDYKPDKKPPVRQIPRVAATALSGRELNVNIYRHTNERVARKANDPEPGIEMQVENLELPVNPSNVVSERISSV
READOUT_TYPE: pKi
Kindly note that pKi refers to -log10 of the concentration in mol/L and answer with the value alone.

IN: Enter reported pKi observed with 5-hydroxytryptamine receptor 2C (Rattus norvegicus, UniProt P08909) for `COc1ccc2c(c1)c(CCN(C)C)cn2S(=O)(=O)c1ccccc1`
OUT: 7.64
